Assay: yeast NALP1 reporter signal suppression – S. cerevisiae, luminescence, single concentration, NALP1 inhibitor project, confirmation (AID 488841);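 also: plate controls were DMSO in galactose medium for no effect and cells in plain SD medium for full effect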
Settings: S. cerevisiae NALP1/ASC/Caspase-1 reporter, beta-gal luminescence; at 10 µM
About 380 (27%) of roughly 1,400 compounds were called active.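 The calls were made as follows: active = mean inhibition above 50% across duplicate retests at 10 µM; inactive = the rest.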 The list shows a part of the results.
Permitted responses: active, inactive

Observe how each entry below is paired with its result.
COMPOUND	CAT
CCC(C)(C)NCC(=O)Nc1ccc(OC(F)(F)F)cc1	inactive
O=C1OC(/C=C/c2ccc(Cl)cc2)=NC/1=C/c1ccco1	inactive
Cc1cc(C)c(S(=O)(=O)Nc2ccc(OCC(=O)O)cc2)c(C)c1	inactive
Nc1[nH]ncc1N=Nc1ccc(Cl)cc1	active
NC(=O)C1(N2CCCCC2)CCN(Cc2nc(-c3cccs3)no2)CC1	inactive

Outcome? "O=C(/C=C\Nc1cccc(F)c1)c1cccs1"
inactive

Outcome? "CCc1ccc(C(=O)NCc2ccc(Cl)cc2Cl)cc1"
active

Outcome? "Cc1ccc(/C(N)=N/OC(=O)c2ccc(Cl)cc2Cl)cc1"
inactive

Outcome? "CC(C)Oc1ccc(NC(=O)CCC(=O)O)cc1"
inactive

Outcome? CCOC(=O)C1CCCCN1Cc1ccc(F)c(Br)c1 (centres undefined)
inactive

Outcome? "CCN(CC)S(=O)(=O)c1cccc(C(=O)Oc2cccc(NC(=O)c3cccs3)c2)c1"
inactive

Outcome? CC(C)c1ccc(N2C(=O)CC(Sc3ncn[nH]3)C2=O)cc1 (centres undefined)
inactive

Outcome? C=C(C)C1Cc2c(C)nn(-c3ccccn3)c2C1 (centres undefined)
inactive

Outcome? COc1cc(NC(C)CCCN)c2ncccc2c1Oc1ccccc1 (centres undefined)
inactive

Outcome? "O=S(=O)(Nc1cccnc1)c1cccs1"
inactive

Outcome? "Fc1ccc(N2CCN(Cc3cnc(Oc4ccc(Br)cc4)s3)CC2)cc1"
inactive

Outcome? CN(C)c1ccc(O)c2c1CC1CC3[C@@H](N(C)C)C(=O)C(C(N)=O)=C(O)[C@]3(O)C(=O)C1=C2O (some centres undefined)
inactive

----------
Assay: yeast NALP1 reporter signal suppression – S. cerevisiae, luminescence, single concentration, NALP1 inhibitor project, confirmation (AID 488841);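 also: plate controls were DMSO in galactose medium for no effect and cells in plain SD medium for full effect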
Settings: S. cerevisiae NALP1/ASC/Caspase-1 reporter, beta-gal luminescence; at 10 µM
Screen size: about 1,400 compounds; about 380 (27%) were called active.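 How the source made its calls: active means mean inhibition above 50% across duplicate retests at 10 µM; inactive means the rest.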 The list shows a part of the results.
Permitted responses: label 1 (active), label 0 (inactive)

Outcome? COc1ccc(CNCC(O)(c2ccccc2)c2ccc(Cl)cc2)cc1 (stereo not drawn)
label 1

Outcome? CCC(Cc1ccccc1)NC(=O)C1CCN(S(=O)(=O)c2c(C)noc2C)CC1 (stereo not drawn)
label 0

Outcome? COC(=O)c1ccc(/C=C(\C#N)C(=O)NC(C)c2ccccc2)cc1 (stereo not drawn)
label 0

----------
The reader will find reported inhibition values listed item by item below.
Assay: yeast NALP1 reporter signal suppression – S. cerevisiae, luminescence, single concentration, NALP1 inhibitor project, confirmation (AID 488841);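 also: plate controls were DMSO in galactose medium for no effect and cells in plain SD medium for full effect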
Details: S. cerevisiae NALP1/ASC/Caspase-1 reporter, beta-gal luminescence; at 10 µM; active compounds read high
Screen size: about 1,400 compounds; about 380 (27%) were called active. Some of the results follow.
Report the figure in % without appending any unit label.

Here are 10 compounds together with their reported answers.
COMPOUND	inhibition / %
CCCCN(C)C(=O)c1nc2ccccn2c1CNCCCn1ncc2ccccc21	16.4
COC(=O)/C=C/C(=O)N1CCN(c2cccc(Cl)c2)CC1	54.7
CN(C)c1nc(N)nc(CSc2nnnn2-c2ccc(C(=O)O)cc2)n1	29.5
c1ccc2[nH]c3cc4ncnc4cc3nc2c1	52.8
O=C(O)[C@@H](c1ccccc1)N1Cc2ccccc2C1=O	26.9
Cc1[nH]c2ccccc2c1C(=O)CSc1nc2ncc(Cl)cc2[nH]1	25.4
CCOc1ccc(C(=O)C(CCC(CN(C)C)C(=O)c2ccc(OCC)cc2)CN(C)C)cc1 (configuration not stated)	73
O=C(c1cccc(F)c1)N1CCN(c2cc(N3CCCCC3)c(F)cc2[N+](=O)[O-])CC1	46.2
CS(=O)(=O)N1CCC(C(=O)Nc2ccc3c(c2)OCO3)CC1	30.6
O=S(=O)(c1ccc(Br)cc1)N1CCCN(Cc2cccc(F)c2)CC1	59.5

Give a short answer stating reported inhibition for "CCOC(=O)c1cc(-c2ccc(OC)cc2)nc2c1c(C)nn2CCC#N" .
49.9
